test: total protein half-life in vivo (active degradation + dilution); higher = more stable protein; settings: E. coli NCM3722 delta-clpP delta-lon delta-hslV; growth: N-lim chemostat; doubling time 6 h
experimentalReadout: total protein half-life in vivo (h)
Respond numerically; units are h and should not be typed.

What the record says about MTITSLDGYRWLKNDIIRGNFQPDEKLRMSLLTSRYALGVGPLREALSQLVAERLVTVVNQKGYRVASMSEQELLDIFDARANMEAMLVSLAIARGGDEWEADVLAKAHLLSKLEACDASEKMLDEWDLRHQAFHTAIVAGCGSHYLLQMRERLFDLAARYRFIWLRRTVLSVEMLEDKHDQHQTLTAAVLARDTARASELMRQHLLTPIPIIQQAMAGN : total protein half-life in vivo is 5.31

What the record says about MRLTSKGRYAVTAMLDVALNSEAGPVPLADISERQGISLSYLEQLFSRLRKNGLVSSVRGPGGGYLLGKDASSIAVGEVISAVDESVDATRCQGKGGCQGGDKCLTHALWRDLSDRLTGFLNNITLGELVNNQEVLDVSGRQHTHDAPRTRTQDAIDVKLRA [P0AGK8] : total protein half-life in vivo is 5.43

What the record says about MLYIFRLIITVIYSILVCVFGSIYCLFSPRNPKHVATFGHMFGRLAPLFGLKVECRKPTDAESYGNAIYIANHQNNYDMVTASNIVQPPTVTVGKKSLLWIPFFGQLYWLTGNLLIDRNNRTKAHGTIAEVVNHFKKRRISIWMFPEGTRSRGRGLLPFKTGAFHAAIAAGVPIIPVCVSTTSNKINLNRLHNGLVIVEMLPPIDVSQYGKDQVRELAAHCRSIMEQKIAELDKEVAEREAAGKV : total protein half-life in vivo is 5.89

What the record says about METVFDALKAMGKATSIELAARLDISREEVLNELWELKKAGFVDKSAYTWRVADNNVQQEQPAQAELPEEITTATVAKISECDLTATIEQRGPQTADELATLFGTTSRKVASTLAMAISKGRLIRVNQGGKFRYCIPGDNLPAEPKAASVSPLWLSASSSACHGVLIITVITPSPTKNSATKMPEN : total protein half-life in vivo is 5.08

What the record says about MMTTILTIHVPSTPGRAWNMLVALQAGNIVARYAKLHLYDAFAIQESRRVDAGNEIAPLLEVEGMKVGLMTCYDLRFPELALAQALQGAEILVLPAAWVRGPLKEHHWSTLLAARALDTTCYMVAAGECGNKNIGQSRIIDPFGVTIAAASEMPALIMAEVTPERVRQVRAQLPVLNNRRFAPPQLL [P0DP64] : total protein half-life in vivo is 7.53

What the record says about MNAYELQALRHIFAMTIDECATWIAQTGDSESWRQWENGKCAIPDRVVEQLLAMRQQRKKHLHAIIEKINNRIGNNTMRFFPDLTAFQRVYPDGNFIDWKIYQSVAAELYAHDLERLC : total protein half-life in vivo is 4.85

What the record says about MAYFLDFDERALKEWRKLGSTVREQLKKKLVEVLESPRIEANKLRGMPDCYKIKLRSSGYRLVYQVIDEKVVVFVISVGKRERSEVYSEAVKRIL [P0C077] : total protein half-life in vivo is 4.02

###

test: total protein half-life in vivo (active degradation + dilution); higher = more stable protein; conditions: E. coli NCM3722 delta-clpP; growth: N-lim chemostat; doubling time 6 h
experimentalReadout: total protein half-life in vivo (h)
Respond numerically; units are h and should not be typed.

Record excerpt, results attached:
[
  {
    "sequenceString": "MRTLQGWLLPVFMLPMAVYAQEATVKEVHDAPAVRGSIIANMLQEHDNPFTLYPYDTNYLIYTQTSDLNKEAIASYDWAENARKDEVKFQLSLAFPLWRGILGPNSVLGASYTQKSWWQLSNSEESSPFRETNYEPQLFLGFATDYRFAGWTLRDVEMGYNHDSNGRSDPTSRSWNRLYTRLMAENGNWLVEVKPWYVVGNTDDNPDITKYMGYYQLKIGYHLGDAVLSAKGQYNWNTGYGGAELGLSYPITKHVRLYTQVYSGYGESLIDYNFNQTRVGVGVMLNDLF [P0A921]",
    "measuredValue": 6.15
  },
  {
    "sequenceString": "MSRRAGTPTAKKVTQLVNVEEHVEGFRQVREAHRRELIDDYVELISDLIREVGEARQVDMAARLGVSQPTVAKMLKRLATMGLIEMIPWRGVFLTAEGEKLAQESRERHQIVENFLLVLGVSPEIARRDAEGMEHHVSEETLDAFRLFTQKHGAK [P0A9F1]",
    "measuredValue": 5.64
  },
  {
    "sequenceString": "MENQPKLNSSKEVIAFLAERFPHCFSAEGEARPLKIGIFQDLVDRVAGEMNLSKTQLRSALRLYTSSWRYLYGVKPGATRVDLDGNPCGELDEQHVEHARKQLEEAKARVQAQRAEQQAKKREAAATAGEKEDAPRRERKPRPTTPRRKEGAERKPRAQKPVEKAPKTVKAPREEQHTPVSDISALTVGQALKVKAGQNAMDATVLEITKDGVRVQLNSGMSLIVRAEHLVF",
    "measuredValue": 4.08
  }
]

Let us examine a further case.
What the record says about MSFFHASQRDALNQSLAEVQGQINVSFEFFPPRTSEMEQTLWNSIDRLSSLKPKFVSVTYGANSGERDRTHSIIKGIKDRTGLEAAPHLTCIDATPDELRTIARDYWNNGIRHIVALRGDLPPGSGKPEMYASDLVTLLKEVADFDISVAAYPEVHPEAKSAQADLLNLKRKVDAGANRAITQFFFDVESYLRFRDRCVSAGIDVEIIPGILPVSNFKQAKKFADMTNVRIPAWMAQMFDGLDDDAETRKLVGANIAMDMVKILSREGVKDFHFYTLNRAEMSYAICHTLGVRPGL [P0AEZ1] : total protein half-life in vivo is 3.18

###

experiment: total protein half-life in vivo (active degradation + dilution); higher = more stable protein; settings: wild type E. coli NCM3722; growth: C-lim chemostat; doubling time 6 h
Label 1 (yes) when total protein half-life in vivo is at or above 6 h; otherwise label 0 (no).

[
  {
    "sequenceString": "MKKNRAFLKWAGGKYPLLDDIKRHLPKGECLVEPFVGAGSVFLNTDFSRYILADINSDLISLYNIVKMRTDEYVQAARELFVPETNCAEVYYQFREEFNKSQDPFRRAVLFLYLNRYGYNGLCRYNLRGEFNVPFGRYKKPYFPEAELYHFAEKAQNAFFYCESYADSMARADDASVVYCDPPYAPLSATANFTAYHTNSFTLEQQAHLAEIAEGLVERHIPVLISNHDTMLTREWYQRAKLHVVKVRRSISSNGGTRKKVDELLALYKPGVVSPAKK [P0AEE8]",
    "groupLabel": "0 (no)"
  },
  {
    "sequenceString": "MYTLNWQPPYDWSWMLGFLAARAVSSVETVADSYYARSLAVGEYRGVVTAIPDIARHTLHINLSAGLEPVAAECLAKMSRLFDLQCNPQIVNGALGRLGAARPGLRLPGCVDAFEQGVRAILGQLVSVAMAAKLTARVAQLYGERLDDFPEYICFPTPQRLAAADPQALKALGMPLKRAEALIHLANAALEGTLPMTIPGDVEQAMKTLQTFPGIGRWTANYFALRGWQAKDVFLPDDYLIKQRFPGMTPAQIRRYAERWKPWRSYALLHIWYTEGWQPDEA",
    "groupLabel": "0 (no)"
  },
  {
    "sequenceString": "MIREAQRSELPAILELWLESTTWGHPFIKANYWRDCIPLVRDAYLANAQNWVWEEDGKLLGFVSIMEGRFLAAMFVAPKAVRRGIGKALMQYVQQRHPHLMLEVYQKNQPAINFYQAQGFHIVDCAWQDETQLPTWIMSWPVVQTL",
    "groupLabel": "0 (no)"
  },
  {
    "sequenceString": "MFPEYRDLISRLKNENPRFMSLFDKHNKLDHEIARKEGSDGRGYNAEVVRMKKQKLQLKDEMLKILQQESVKEV [P0ACW6]",
    "groupLabel": "0 (no)"
  }
]

Moving on to another sequence below.
Task: Determine whether measured total protein half-life in vivo meets or exceeds 6 h for MQEYTNHSDTTFALRNISFRVPGRTLLHPLSLTFPAGKVTGLIGHNGSGKSTLLKMLGRHQPPSEGEILLDAQPLESWSSKAFARKVAYLPQQLPPAEGMTVRELVAIGRYPWHGALGRFGAADREKVEEAISLVGLKPLAHRLVDSLSGGERQRAWIAMLVAQDSRCLLLDEPTSALDIAHQVDVLSLVHRLSQERGLTVIAVLHDINMAARYCDYLVALRGGEMIAQGTPAEIMRGETLEMIYGIPMGILPHPAGAAPVSFVY
Output: 1 (yes)

###

experiment: total protein half-life in vivo (active degradation + dilution); higher = more stable protein; settings: wild type E. coli NCM3722; growth: P-lim chemostat; doubling time 6 h
Label T when total protein half-life in vivo is at or above 6 h; otherwise label F.

Illustrative cases are given below, each with its answer.
[
  {
    "sequenceString": "MLDLFKAIGLGLVVLLPLANPLTTVALFLGLAGNMNSAERNRQSLMASVYVFAIMMVAYYAGQLVMDTFGISIPGLRIAGGLIVAFIGFRMLFPQQKAIDSPEAKSKSEELEDEPSANIAFVPLAMPSTAGPGTIAMIISSASTVRQSSTFADWVLMVAPPLIFFLVAVILWGSLRSSGAIMRLVGKGGIEAISRLMGFLLVCMGVQFIINGILEIIKTYH [P0AEY1]",
    "groupLabel": "T"
  },
  {
    "sequenceString": "MIEILHEYWKPLLWTDGYRFTGVAITLWLLILSVVIGGVLALFLAIGRVSSNKYIQFPIWLFTYIFRGTPLYVQLLVFYSGMYTLEIVKGTEFLNAFFRSGLNCTVLALTLNTCAYTTEIFAGAIRSVPHGEIEAARAYGFSTFKMYRCIILPSALRIALPAYSNEVILMLHSTALAFTATVPDLLKIARDINAATYQPFTAFGIAAVLYLIISYVLISLFRRAEKRWLQHVKPSSTH [P0AEU3]",
    "groupLabel": "T"
  },
  {
    "sequenceString": "MPKLRLIGLTLLALSATAVSHAEETRYVSDELNTWVRSGPGDHYRLVGTVNAGEEVTLLQTDANTNYAQVKDSSGRTAWIPLKQLSTEPSLRSRVPDLENQVKTLTDKLTNIDNTWNQRTAEMQQKVAQSDSVINGLKEENQKLKNELIVAQKKVDAASVQLDDKQRTIIMQWFMYGGGVLGLGLLLGLVLPHLIPSRKRKDRWMN [P0ADT8]",
    "groupLabel": "F"
  }
]

Moving on to another sequence below.
Task: Determine whether measured total protein half-life in vivo meets or exceeds 6 h for MKITVLGCGALGQLWLTALCKQGHEVQGWLRVPQPYCSVNLVETDGSIFNESLTANDPDFLATSDLLLVTLKAWQVSDAVKSLASTLPVTTPILLIHNGMGTIEELQNIQQPLLMGTTTHAARRDGNVIIHVANGITHIGPARQQDGDYSYLADILQTVLPDVAWHNNIRAELWRKLAVNCVINPLTAIWNCPNGELRHHPQEIMQICEEVAAVIEREGHHTSAEDLRDYVMQVIDATAENISSMLQDIRALRHTEIDYINGFLLRRARAHGIAVPENTRLFEMVKRKESEYERIGTGLPRPW [P0A9J4]
Output: F

Every entry's value here was drawn from the supplement of paper PMC11246515.
